Target: FimH-CRD (Escherichia coli)
Construct: The first 177 amino acids of the FimH protein; thrombin tag (printed as 'fusion protein with thrombin') (cleaved yes); made in house; host or cells: bacteria (pET21b plasmid)
Sequence (P08191 22-177): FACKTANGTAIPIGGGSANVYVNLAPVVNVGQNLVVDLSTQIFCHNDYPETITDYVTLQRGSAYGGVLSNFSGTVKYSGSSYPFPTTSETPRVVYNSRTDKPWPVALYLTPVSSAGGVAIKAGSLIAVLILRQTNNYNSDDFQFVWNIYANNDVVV
Experiment: Competitive binding assay by fluorescence polarization, assay 2 (compounds prepared by robotics, plates frozen and thawed)
Just a reminder that ties go to -1: only Kd strictly below 30 nM counts as 1.

                                   compound                   testsystem  classification
0  OC[C@H]1O[C@H](c2cccc(-c3nc4c(F)cc(F)cc4[nH]3)c2)[C@@H](O)[C@@H](O)[C@@H]1O  FimH-CRD (Escherichia coli)               1
1  OC[C@H]1O[C@H](c2cccc(-c3ccc(-c4cccnc4)cc3)c2)[C@@H](O)[C@@H](O)[C@@H]1O  FimH-CRD (Escherichia coli)               1
2  OC[C@H]1OC(c2ccc(OCCCCF)cc2)[C@@H](O)[C@@H](O)[C@@H]1O (stereo partly shown)  FimH-CRD (Escherichia coli)               1
3  CNC(=O)c1cccc(Oc2cccc([C@H]3O[C@H](CO)[C@@H](O)[C@H](O)[C@@H]3O)c2F)c1  FimH-CRD (Escherichia coli)               1
4  COC(=O)c1ccc(OCc2cccc([C@H]3O[C@H](CO)[C@@H](O)[C@H](O)[C@@H]3O)c2)cc1  FimH-CRD (Escherichia coli)              -1
5  O=C(O)c1cc(C(=O)O)cc(-c2cccc([C@H]3O[C@H](CO)[C@@H](O)[C@H](O)[C@@H]3O)c2)c1  FimH-CRD (Escherichia coli)              -1
6  COC(=O)c1nc2cc(-c3cccc([C@H]4O[C@H](CO)[C@@H](O)[C@H](O)[C@@H]4O)c3)ccc2[nH]1  FimH-CRD (Escherichia coli)              -1
7  OC[C@H]1O[C@H](c2cc(O)ccc2Cl)[C@@H](O)[C@@H](O)[C@@H]1O  FimH-CRD (Escherichia coli)              -1
8  CNC(=O)c1cc(/C=C/c2cccc([C@H]3O[C@H](CO)[C@@H](O)[C@H](O)[C@@H]3O)c2)cc(C(=O)NC)c1  FimH-CRD (Escherichia coli)               1
9  COc1cc([C@H]2O[C@H](CO)[C@@H](O)[C@H](O)[C@@H]2O)ccc1Br  FimH-CRD (Escherichia coli)              -1

Threshold test, Kd < 30 nM: Cc1c(-c2cccc(S(C)(=O)=O)c2)cccc1[C@H]1O[C@H](CO)[C@@H](O)[C@H](O)[C@@H]1O
1

One more compound: N#Cc1ccc2[nH]c(-c3cccc([C@H]4O[C@H](CO)[C@@H](O)[C@H](O)[C@@H]4O)c3)nc2c1
-1

One more compound: N#CCCCOc1ccc(C2O[C@H](CO)[C@@H](O)[C@H](O)[C@@H]2O)cc1 (stereo partly shown)
1

One more compound: CNC(=O)c1ccc(Oc2ccc(OC(F)(F)F)c([C@H]3O[C@H](CO)[C@@H](O)[C@H](O)[C@@H]3O)c2)cc1
-1

One more compound: CNC(=O)c1cccc(Cc2cccc([C@H]3O[C@H](CO)[C@@H](O)[C@H](O)[C@@H]3O)c2)c1
-1

One more compound: CNC(=O)c1cccc(COc2cccc([C@H]3O[C@H](CO)[C@@H](O)[C@H](O)[C@@H]3O)c2)c1
-1

One more compound: CCCCNC(=O)c1cccc([C@H]2O[C@H](CO)[C@@H](O)[C@H](O)[C@@H]2O)c1
-1

One more compound: Cn1cnc2ccc(-c3cccc([C@H]4O[C@H](CO)[C@@H](O)[C@H](O)[C@@H]4O)c3)cc21
1

One more compound: CCc1c(-c2ccc(-c3nnc(C)o3)cc2)cccc1[C@H]1O[C@H](CO)[C@@H](O)[C@H](O)[C@@H]1O
1

One more compound: OC[C@H]1OC(c2ccc(OCc3cc(Cl)cc(Cl)c3)cc2)[C@@H](O)[C@@H](O)[C@@H]1O (stereo partly shown)
-1

One more compound: Cc1nnc(-c2ccc(-c3cccc([C@H]4O[C@H](CO)[C@@H](O)[C@H](O)[C@@H]4O)c3)cc2O)o1
1

One more compound: Cc1nnc(-c2cccc(-c3cccc([C@H]4O[C@H](CO)[C@@H](O)[C@H](O)[C@@H]4O)c3)c2)o1
-1

One more compound: OC[C@H]1OC(c2cccc(OCCCc3ccccc3)c2)[C@@H](O)[C@@H](O)[C@@H]1O (stereo partly shown)
1

One more compound: CCC#CCOc1ccc(C2O[C@H](CO)[C@@H](O)[C@H](O)[C@@H]2O)cc1 (stereo partly shown)
-1

One more compound: CNC(=O)c1cccc(C#Cc2cc([C@H]3O[C@H](CO)[C@@H](O)[C@H](O)[C@@H]3O)ccc2OC)c1
-1

One more compound: N#Cc1ccc(Oc2cccc([C@H]3O[C@H](CO)[C@@H](O)[C@H](O)[C@@H]3O)c2)cc1
1

One more compound: Cc1nn(-c2ccccc2)nc1COc1cccc(C2O[C@H](CO)[C@@H](O)[C@H](O)[C@@H]2O)c1 (stereo partly shown)
1

One more compound: OC[C@H]1OC(c2ccc(OCc3ccccc3)cc2)[C@@H](O)[C@@H](O)[C@@H]1O (stereo partly shown)
1

FYI, the data here is from patent US20130261077A1.
